Assayed system: T1, human transferrin receptor (recombinant, for surface plasmon resonance) (human, UniProt P02786 89-760)
T1 construct: also called huTfR; human transferrin receptor-biotinylated
T1 sequence (P02786 89-760 limits assumed): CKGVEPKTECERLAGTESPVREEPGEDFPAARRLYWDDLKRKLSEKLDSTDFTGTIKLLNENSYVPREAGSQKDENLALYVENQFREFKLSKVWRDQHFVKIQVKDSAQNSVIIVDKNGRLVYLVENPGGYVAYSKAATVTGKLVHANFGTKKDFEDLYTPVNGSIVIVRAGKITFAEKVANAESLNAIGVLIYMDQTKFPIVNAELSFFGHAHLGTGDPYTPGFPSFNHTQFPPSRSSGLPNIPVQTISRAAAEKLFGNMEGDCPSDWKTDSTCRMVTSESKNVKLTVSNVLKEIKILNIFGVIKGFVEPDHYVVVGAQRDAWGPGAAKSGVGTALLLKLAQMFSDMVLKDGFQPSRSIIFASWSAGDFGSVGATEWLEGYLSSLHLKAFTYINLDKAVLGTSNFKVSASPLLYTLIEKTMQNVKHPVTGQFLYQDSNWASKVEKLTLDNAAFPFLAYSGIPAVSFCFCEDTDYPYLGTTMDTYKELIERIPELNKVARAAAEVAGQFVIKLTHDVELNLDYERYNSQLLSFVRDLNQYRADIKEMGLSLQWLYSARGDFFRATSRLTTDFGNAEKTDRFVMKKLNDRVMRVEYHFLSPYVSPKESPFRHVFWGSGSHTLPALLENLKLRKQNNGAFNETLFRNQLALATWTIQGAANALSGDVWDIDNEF
Procedure text: SPR 25C
I'd appreciate it if you could supply koff values for the items below.
Answers are plain numbers, in s⁻¹.

Binder	koff [s⁻¹]
2/99 VH16/VL12 (antibody, V domains shown) VH: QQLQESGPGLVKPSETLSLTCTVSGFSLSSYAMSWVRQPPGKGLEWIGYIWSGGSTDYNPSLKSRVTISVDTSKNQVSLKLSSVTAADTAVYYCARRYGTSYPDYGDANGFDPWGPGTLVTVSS VL: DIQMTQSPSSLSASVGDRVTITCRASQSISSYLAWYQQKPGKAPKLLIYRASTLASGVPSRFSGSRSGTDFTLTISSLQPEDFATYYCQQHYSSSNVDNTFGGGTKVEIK	0.00754
2/99 VH9/VL1 (antibody, V domains shown) VH: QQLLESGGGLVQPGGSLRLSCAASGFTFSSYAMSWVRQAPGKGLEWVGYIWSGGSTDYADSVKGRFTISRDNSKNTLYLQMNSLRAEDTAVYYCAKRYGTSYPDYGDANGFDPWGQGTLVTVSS VL: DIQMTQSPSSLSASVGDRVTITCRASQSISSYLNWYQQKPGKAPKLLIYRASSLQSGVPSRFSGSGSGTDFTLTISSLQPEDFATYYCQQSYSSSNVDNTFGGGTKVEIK	0.00694

Pending binder:
Entry 2/99 VH12/VL6 (antibody, V domains shown) VH: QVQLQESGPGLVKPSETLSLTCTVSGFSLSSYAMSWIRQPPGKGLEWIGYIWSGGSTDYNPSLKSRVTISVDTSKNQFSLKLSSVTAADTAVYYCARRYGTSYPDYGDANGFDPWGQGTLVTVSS VL: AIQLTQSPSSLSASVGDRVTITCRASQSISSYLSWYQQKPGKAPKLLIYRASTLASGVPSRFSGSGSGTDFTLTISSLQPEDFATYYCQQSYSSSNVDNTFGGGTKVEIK : reported koff = ?
0.00705
